System: batrachotoxin (BTX) binding site of the sodium channel
Assay: Affinity for the batrachotoxin (BTX) binding site of the sodium channel ([3H]-Batrachotoxinin A20 benzoate, rat cerebrocortex synaptosomes)
Settings: [3H]-Batrachotoxinin A20 benzoate 10 nM, test concentration not given
Parameter threshold = 60. Response is 1 when BTX inhibition meets or exceeds it, else -1.

- COc1ccccc1C(=O)Nc1ncc2c(n1)CCN(C(=O)c1cc(-c3ccc(Cl)cc3)oc1C)C2 [Example 78]: -1
- COc1ccccc1C(=O)Nc1ncc2c(n1)CCN(S(=O)(=O)c1c(C)cc(OC)c(C)c1C)C2 [Example 158]: 1
- COc1ccccc1C(=O)Nc1ncc2c(n1)CCN(S(=O)(=O)c1ccc(Cl)s1)C2 [Example 86]: 1
- O=C(Nc1ncc2c(n1)CCN(C(=O)c1ccc(F)cc1F)C2)c1ccc(Cl)cc1 [Example 152]: -1
- CC(C)C(NC(=O)OCC1c2ccccc2-c2ccccc21)C(=O)NC1CCc2nc(NC(=O)c3cccs3)ncc2C1 (centres unmarked) [Example 139]: 1
- Cc1cc(C)c(C)c(S(=O)(=O)N2CCc3nc(NC(=O)c4cccs4)ncc3C2)c1C [Example 99]: 1
- Cc1nc(C)c(S(=O)(=O)N2CCc3nc(NC(=O)c4ccc(Cl)cc4)ncc3C2)s1 [Example 79]: -1
- Cc1ccc(C)c(CC(=O)NC2CCc3nc(NC(=O)c4ccc(F)cc4)ncc3C2)c1 (centres unmarked) [Example 163]: -1

====

System: batrachotoxin (BTX) binding site of the sodium channel
Assay: Affinity for the batrachotoxin (BTX) binding site of the sodium channel ([3H]-Batrachotoxinin A20 benzoate, rat cerebrocortex synaptosomes)
Details: [3H]-Batrachotoxinin A20 benzoate 10 nM, test concentration not given
value.kind: BTX inhibition

* CCc1ccc(C(=O)Nc2ncc3c(n2)CCN(S(=O)(=O)c2ccc(OC)cc2)C3)cc1 [Example 172] | 57
* CCCC(=O)Nc1ncc2c(n1)CCC(NS(=O)(=O)c1ccc(C(C)(C)CC)cc1)C2 (stereo not shown) [Example 167] | 51
* CCc1ccc(C(=O)Nc2ncc3c(n2)CCN(C(=O)c2ccc(-n4cccn4)cc2)C3)cc1 [Example 74] | 66
* O=C(Nc1ncc2c(n1)CCN(C(=O)c1ccc(OC(F)(F)F)cc1)C2)c1cc(Cl)cc(Cl)c1 [Example 192] | 87
* O=C(Nc1ncc2c(n1)CCN(S(=O)(=O)c1cccs1)C2)c1ccc(F)c(F)c1 [Example 72] | 31
* CCc1ccc(C(=O)Nc2ncc3c(n2)CCN(S(=O)(=O)c2ccc4c(c2)CN(C(=O)C(F)(F)F)CC4)C3)cc1 [Example 157] | 63
* O=C(Nc1ncc2c(n1)CCN(C(=O)c1cccc(F)c1)C2)c1cccc2ccccc12 [Example 183] | 31
* O=C(Nc1ncc2c(n1)CCC(NS(=O)(=O)c1cc(Cl)sc1Cl)C2)c1cccs1 (stereo not shown) [Example 180] | 46
* Cc1cc(C(=O)NC2CCc3nc(NC(=O)c4cccs4)ncc3C2)ccc1Br (stereo not shown) [Example 115] | 82
* O=C(Nc1ncc2c(n1)CCN(C(=O)Cc1c(Cl)cccc1Cl)C2)c1cccc(Cl)c1 [Example 187] | 43
* Cc1ccc(C(=O)Nc2ncc3c(n2)CCN(C(=O)COc2cccc(Cl)c2)C3)cc1 [Example 189] | 55
* Cc1oc(-c2ccccc2)cc1C(=O)N1CCc2nc(NC(=O)c3ccccc3F)ncc2C1 [Example 137] | 43
* O=C(Nc1ncc2c(n1)CCN(C(=O)c1sc3ccccc3c1Cl)C2)c1ccccc1 [Example 120] | 48
* O=C(Nc1ncc2c(n1)CCN(C(=O)C1CCc3ccccc3C1)C2)c1cccc(F)c1 (stereo not shown) [Example 141] | 63
* COc1cccc(C(=O)Nc2ncc3c(n2)CCN(S(=O)(=O)c2cc(Br)ccc2OC)C3)c1 [Example 129] | 76
* Cc1cc(C)c(S(=O)(=O)N2CCc3nc(NC(=O)c4ccc(Cl)c(Cl)c4)ncc3C2)c(C)c1 [Example 95] | 77

====

Test system: batrachotoxin (BTX) binding site of the sodium channel
Experiment: Affinity for the batrachotoxin (BTX) binding site of the sodium channel ([3H]-Batrachotoxinin A20 benzoate, rat cerebrocortex synaptosomes)
Conditions: [3H]-Batrachotoxinin A20 benzoate 10 nM, test concentration not given
compounds and their reported BTX inhibition
value.kind: BTX inhibition

- CCc1ccc(C(=O)Nc2ncc3c(n2)CCN(C(=O)c2ccc(Cl)c(Cl)c2)C3)cc1: 68
- O=C(CCc1ccccc1)NC1CCc2nc(NC(=O)c3ccc(F)cc3)ncc2C1 (centres unmarked): 47
- Cc1ccc(C(=O)Nc2ncc3c(n2)CCN(C(=O)c2ccc(SC(F)(F)F)cc2)C3)cc1: 85
- O=C(Nc1ncc2c(n1)CCN(S(=O)(=O)c1ccc(Cl)s1)C2)c1cccc2ccccc12: 37
- CCOc1ccccc1C(=O)Nc1ncc2c(n1)CCN(S(=O)(=O)c1ccccc1C(=O)OC)C2: 38
- CCOc1ccccc1C(=O)Nc1ncc2c(n1)CCN(C(=O)c1sccc1Cl)C2: 46
- O=C(Nc1ncc2c(n1)CCN(C(=O)CCC1CCCC1)C2)c1ccncc1: 72
- O=C(Nc1ncc2c(n1)CCN(S(=O)(=O)c1cccc(Br)c1)C2)c1cccc(Cl)c1: 66

====

compounds and their reported BTX inhibition
System: batrachotoxin (BTX) binding site of the sodium channel
Assay: Affinity for the batrachotoxin (BTX) binding site of the sodium channel ([3H]-Batrachotoxinin A20 benzoate, rat cerebrocortex synaptosomes)
Conditions: [3H]-Batrachotoxinin A20 benzoate 10 nM, test concentration not given
value.kind: BTX inhibition

• Cc1cccc(C(=O)Nc2ncc3c(n2)CCN(S(=O)(=O)c2cccc(C)c2)C3)c1 [Example 116] = 53
• O=C(Nc1ncc2c(n1)CCN(C(=O)c1ccc(Cl)c(Cl)c1)C2)c1ccccc1F [Example 113] = 38
• CC(C)(C)c1ccc(C(=O)Nc2ncc3c(n2)CCN(C(=O)c2csc4ccccc24)C3)cc1 [Example 184] = 87
• O=C(Nc1ncc2c(n1)CCN(S(=O)(=O)c1ccc(Cl)cc1)C2)c1ccc(Cl)c(Cl)c1 [Example 71] = 69

====

Test system: batrachotoxin (BTX) binding site of the sodium channel
Test: Affinity for the batrachotoxin (BTX) binding site of the sodium channel ([3H]-Batrachotoxinin A20 benzoate, rat cerebrocortex synaptosomes)
Conditions: [3H]-Batrachotoxinin A20 benzoate 10 nM, test concentration not given
value.kind: BTX inhibition

* O=C(Nc1ncc2c(n1)CCN(C(=O)c1c(F)cccc1Cl)C2)c1cccc(Cl)c1 | 30
* Cc1ccc(C(=O)Nc2ncc3c(n2)CCN(S(=O)(=O)c2cc(F)ccc2C)C3)cc1 | 73
* CCCC(=O)Nc1ncc2c(n1)CCC(NC(=O)c1ccc(Cc3ccccc3)o1)C2 (centres unmarked) | 39
* CC(C)(C)c1ccc(C(=O)Nc2ncc3c(n2)CCN(S(=O)(=O)c2ccc4c(c2)OCCO4)C3)cc1 | 77
* CCc1ccc(C(=O)Nc2ncc3c(n2)CCN(S(=O)(=O)c2ccccc2Cl)C3)cc1 | 82
* O=C(Nc1ncc2c(n1)CCN(C(=O)c1ccc3ccccc3c1)C2)c1ccc(Cl)cc1 | 64
* CCCC(=O)Nc1ncc2c(n1)CCC(NC(=O)C=Cc1cccc(C(F)(F)F)c1)C2 (centres unmarked) | 39
* O=C(Nc1ncc2c(n1)CCN(C(=O)c1ccc(-c3cccs3)cc1)C2)c1cc(Cl)cc(Cl)c1 | 81

====

System: batrachotoxin (BTX) binding site of the sodium channel
Experiment: Affinity for the batrachotoxin (BTX) binding site of the sodium channel ([3H]-Batrachotoxinin A20 benzoate, rat cerebrocortex synaptosomes)
Settings: [3H]-Batrachotoxinin A20 benzoate 10 nM, test concentration not given
value.kind: BTX inhibition

- Cc1ccc(S(=O)(=O)N2CCc3nc(NC(=O)c4cccc(F)c4)ncc3C2)cc1: 61
- COc1ccccc1C(=O)Nc1ncc2c(n1)CCN(C(=O)COCc1ccccc1)C2: 35
- CCCCC(C)CCC(=O)N1CCc2nc(NC(=O)c3cccc4ccccc34)ncc2C1 (stereo not shown): 84
- Cc1ccc(C(=O)N2CCc3nc(NC(=O)c4ccc(C(C)(C)C)cc4)ncc3C2)cc1[N+](=O)[O-]: 75
- O=C(Nc1ncc2c(n1)CCN(S(=O)(=O)c1ccc(OC(F)(F)F)cc1)C2)c1ccc(Cl)c(Cl)c1: 64
- Cc1cccc(C(=O)Nc2ncc3c(n2)CCN(S(=O)(=O)c2sc(C)nc2C)C3)c1: 35
- Cc1ccc([N+](=O)[O-])cc1S(=O)(=O)N1CCc2nc(NC(=O)c3ccccc3F)ncc2C1: 49
- CCc1ccc(C(=O)Nc2ncc3c(n2)CCN(S(=O)(=O)c2ccsc2)C3)cc1: 57
- O=C(Nc1ncc2c(n1)CCN(C(=O)CCCCc1ccccc1)C2)c1ccccc1: 56
- O=C(Nc1ncc2c(n1)CCN(C(=O)C1=Cc3ccccc3OC1)C2)c1ccc(F)c(F)c1: 49
- CCCCCC(=O)NC1CCc2nc(NC(=O)c3ccc(F)cc3)ncc2C1 (stereo not shown): 33
- O=C(Nc1ncc2c(n1)CCN(C(=O)Cc1ccc(Cl)cc1)C2)c1ccc(Cl)c(Cl)c1: 70
- O=C(Nc1ncc2c(n1)CCN(C(=O)c1sc3ccccc3c1Cl)C2)c1cccs1: 40
- O=C(Nc1ncc2c(n1)CCN(C(=O)Cc1ccc(C(F)(F)F)cc1)C2)c1ccccc1: 62
- COc1cccc(C(=O)Nc2ncc3c(n2)CCN(C(=O)c2cccc(OC(F)(F)F)c2)C3)c1: 48
- O=C(Nc1ncc2c(n1)CCC(NS(=O)(=O)c1ccc3c(c1)CN(C(=O)C(F)(F)F)CC3)C2)c1cccs1 (stereo not shown): 48
